Origin of measurements: patent US20150246025A1

pIC50: −log10 of the molar value.
Recorded pIC50 values (DPP-IV enzyme (Homo sapiens, UniProt P27487)) are given below.

Take a look at these entries with their results.
In [3]: df
Out[3]:
                                   compound  attribute_measured  test_value
0  N[C@H]1C[C@@H](N2CC3=C(CN(C(=O)C4CC4)C3)C2)CO[C@@H]1c1cc(F)ccc1F               pIC50      > 7.52
1  N[C@H]1C[C@@H](N2CC3=C(CN(C(=O)c4ccccc4)C3)C2)CO[C@@H]1c1cc(F)ccc1F               pIC50      > 7.52
2  CS(=O)(=O)N1CCC2(CCN([C@H]3CO[C@H](c4cc(F)ccc4F)[C@@H](N)C3)C2)C1 (some centres unmarked)               pIC50      > 8.00
3  CC(=O)N[C@H]1C[C@@H](N2CC3=C(CN(C(C)=O)C3)C2)CO[C@@H]1c1cc(F)ccc1F               pIC50      > 7.00
4  N[C@H]1C[C@@H](N2CC3=C(C2)CN(S(=O)(=O)C(F)(F)F)C3)CO[C@@H]1c1cc(F)ccc1F               pIC50      > 7.52

Lab note: DPP-IV enzyme (Homo sapiens, UniProt P27487) assay, enter pIC50 for CS(=O)(=O)N1CCC2CN([C@H]3CO[C@H](c4cc(F)ccc4F)[C@@H](N)C3)CC21 (some centres unmarked) here > 7.00

Lab note: DPP-IV enzyme (Homo sapiens, UniProt P27487) assay, enter pIC50 for N[C@H]1C[C@@H](N2CC3=C(C2)CN(S(=O)(=O)c2ccc(OC(F)(F)F)cc2)C3)CO[C@@H]1c1cc(F)ccc1F here > 7.52

Lab note: DPP-IV enzyme (Homo sapiens, UniProt P27487) assay, enter pIC50 for CCOC(=O)N1CC2=C(C1)CN([C@H]1CO[C@H](c3cc(F)ccc3F)[C@@H](N)C1)C2 here > 8.00

* * *

- System: C57BL/6J mice
- experimental.protocol: In vivo antihyperglycaemic/antidiabetic activity (OGTT), acute single dose 120-min time-course
- condition.info: Mus musculus, 2 h; male C57BL/6J mice, acute single dose 0,3 mg/kg po, 120-min time-course, n = 6, Mean ± SEM; read-out: In vivo OGTT C57; % Glucose change
- Protocol: Acute single dose 120-min time-course experiments were carried out in male C57BL/6J mice, age 8-12 weeks, bred in-house. Animals were housed in groups of 6 animals per cage, for a week, in order to habituate them to vivarium conditions (25±4° C., 60-65% relative humidity, 12: 12 h light: dark cycle, with lights on at 7.30 am). […] The in-vivo glucose lowering properties of the test compounds were evaluated in C57BL/6J (mild hyperglycemic) animal models as described below. […]
The entries below are paired with their reported change in vivo at 0.3 mg/kg.
Write the value in % as a bare number.

Identify the reported change in vivo at 0.3 mg/kg for the following entry. N[C@H]1C[C@@H](N2CC3=C(C2)CN(S(=O)(=O)c2ccc(F)cc2F)C3)CO[C@@H]1c1cc(F)ccc1F [Compound 36] -22.2

Identify the reported change in vivo at 0.3 mg/kg for the following entry. CC(C)C(=O)N1CC2=C(C1)CN([C@H]1CO[C@H](c3cc(F)ccc3F)[C@@H](N)C1)C2 [Compound 24] -18.9

Identify the reported change in vivo at 0.3 mg/kg for the following entry. CS(=O)(=O)N1C[C@H]2CN([C@H]3CO[C@H](c4cc(F)ccc4F)[C@@H](N)C3)[C@H]2C1 [Compound 20] -8.4

Identify the reported change in vivo at 0.3 mg/kg for the following entry. N[C@H]1C[C@@H](N2CC3=C(C2)CN(S(=O)(=O)c2ccccc2)C3)CO[C@@H]1c1cc(F)ccc1F [Compound 32] -25.3

Identify the reported change in vivo at 0.3 mg/kg for the following entry. N#Cc1ccc(S(=O)(=O)N2CC3=C(CN([C@H]4CO[C@H](c5cc(F)ccc5F)[C@@H](N)C4)C3)C2)cc1 [Compound 34] -30.1

Identify the reported change in vivo at 0.3 mg/kg for the following entry. N[C@H]1C[C@@H](N2CC3CN(Cc4ccccc4)CC3C2)CO[C@@H]1c1cc(F)ccc1F (stereo partly shown) [Compound 18] -12.6

Identify the reported change in vivo at 0.3 mg/kg for the following entry. N[C@H]1C[C@@H](N2CC3=C(CN(C=O)C3)C2)CO[C@@H]1c1cc(F)ccc1F [Compound 48] -38.5

Identify the reported change in vivo at 0.3 mg/kg for the following entry. N[C@H]1C[C@@H](N2CC3COCC3C2)CO[C@@H]1c1cc(F)ccc1F (stereo partly shown) [Compound 3] -27.6

Identify the reported change in vivo at 0.3 mg/kg for the following entry. N[C@H]1C[C@@H](N2CC3=C(CN(C(=O)c4ccccc4)C3)C2)CO[C@@H]1c1cc(F)ccc1F [Compound 23] -22

Identify the reported change in vivo at 0.3 mg/kg for the following entry. CS(=O)(=O)N1C[C@H]2CN([C@H]3CO[C@H](c4cc(F)ccc4F)[C@@H](N)C3)C[C@H]21 [Compound 19] -20.6
